Assign Kd to each entry below.
Target: T1, human IL-23 (human, UniProt Q9NPF7 20-189; P29460 23-328)
T1 construct: Bought recombinant heterodimeric cytokine (eBioscience 34-8239-85 for panning; R&D Systems for the splenocyte assay); also called hIL-23; hIL23
T1 sequence (looked up) 1: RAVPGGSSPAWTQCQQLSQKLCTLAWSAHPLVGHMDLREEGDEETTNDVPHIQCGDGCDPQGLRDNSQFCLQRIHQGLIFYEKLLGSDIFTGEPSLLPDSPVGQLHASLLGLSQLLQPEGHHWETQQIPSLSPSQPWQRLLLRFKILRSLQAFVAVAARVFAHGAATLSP
T1 sequence (looked up) 2: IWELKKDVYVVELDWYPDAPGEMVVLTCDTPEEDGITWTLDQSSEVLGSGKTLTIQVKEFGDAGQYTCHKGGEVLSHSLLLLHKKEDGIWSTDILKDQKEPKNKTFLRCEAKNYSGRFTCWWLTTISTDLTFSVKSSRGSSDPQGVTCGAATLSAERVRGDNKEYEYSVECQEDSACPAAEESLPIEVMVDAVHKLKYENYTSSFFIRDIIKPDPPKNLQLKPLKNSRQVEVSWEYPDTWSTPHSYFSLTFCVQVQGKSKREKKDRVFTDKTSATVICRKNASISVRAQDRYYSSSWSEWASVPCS
Assay: phage-coated ELISA, clone displayed on phage
Answer format: numeric, nM implied, no suffix.

Input: Output Kd of MB9 (designed binder) MSIQQIQKEITNIQEVIAAIQKWIYTMTGGSGGSGGMSIEEIQKQIAAIQCQIAAIQKQIYAMTGSGGGGSGGSGGGGSGMSIEEIQKQIAAIQNQILAIYKQIMAMGS
Output: 0.2

Input: Note down Kd recorded for MA15 (designed binder) MSIQEIQKEIANIQAVIAGIQKYIYTMTGGSGGSGGGGSGGSGGMSIEEIQKQIAAIQCQIAAIQKQIYAMTGSGGGGSGMSIEEIQKQITAIQAQIIAIYKQIMAMPR
Output: 0.12
